Test system: PPARg:RXRa IVT, anti-PPARg (NR concentration 270 nM, RXRa partner concentration 90 nM)
Assay: PBM binding z-score (relative to random genomic background probes); higher = stronger binding; sequences stand for … in GC…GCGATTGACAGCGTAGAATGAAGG
Lab note: compare PBM binding z-score against 2. Equal or greater, write yes (1). Smaller, write no (0).

Problem: Check if PBM binding z-score >= 2 (inclusive). Item: CGTCACAGTTCAAGGTAACGTAACAGAAAGCAGC
Result: no (0)

Problem: Tell me whether PBM binding z-score is at least 2 here: GATACAGGGTTAAGGCCAGAGTACGCGTATTGAT
Result: no (0)

Problem: Form field: PBM binding z-score at least 2? Entry: CGTCAACGTTCAAGGTAACGTAACAGAAAGCAGC
Result: no (0)

Problem: Is PBM binding z-score for ATCGTAAGGTCGACGAGGTGAGTATACACCGTTT at or above 2?
Result: no (0)

Problem: For this sequence, is measured PBM binding z-score 2 or higher? GGAACGAGGGCATTCGAGATGATAGCATGGCGAT
Result: yes (1)

Problem: Confirm if PBM binding z-score reported for the sequence CATACAAGGTCAGCTAGGCCAGAGTAGGGACGGC is 2 or above.
Result: yes (1)

Problem: State whether the measured PBM binding z-score reaches 2, counting equality as reaching it, for CGGACTGGGGCATAAGGTTACCATAAGCCAGCCC
Result: yes (1)

Problem: // inclusive: PBM binding z-score at least 2? input: TCTTGTAGATCAACAGGACGTTAAGAAAGATCGA
Result: no (0)

Problem: Entry GCTTGTAGATCAAGCTTAAGAAAGACTAAGCTAA : is its PBM binding z-score no less than 2?
Result: no (0)

Problem: Record TCTTGTAGAACAACAGGAGGTTAAGAAAGATCGA ; criterion: PBM binding z-score no lower than 2. Met?
Result: no (0)

Problem: Determine whether this sequence has PBM binding z-score no lower than 2: CCTACTGGGCCAAAAAGGTCATAGATGCCGATAA
Result: yes (1)

Problem: Please check the record AGATCGAGGGCACGCTGAGTTGATAGCAGAGTAG and state if its PBM binding z-score is at or above 2.
Result: yes (1)

Problem: Answer whether PBM binding z-score of CCGACTGGGGCATAAGATTACCATAAGCCAGCCC is greater than or equal to 2.
Result: no (0)

Problem: Given AGTCAAAGTTCAGGACGAGGTAACATAAAGCACG , state whether its PBM binding z-score is at least 2.
Result: no (0)

Problem: Does GCTTACGGCTCAAAGGTTATAGCATGAATAGAAT have a reported PBM binding z-score of at least 2?
Result: no (0)

Problem: Exam item: decide whether the reported PBM binding z-score for TCGTGTAGATCAAGCAGGTTAAGAAAGCCTGAGT is at least 2.
Result: no (0)

Problem: Dear colleague, could you confirm whether CTACCAAGGTGAACAAGGTCGTTGGTTACTATTC has PBM binding z-score at or above 2?
Result: yes (1)

Problem: Reported PBM binding z-score at or above 2? TGAATGAGGTTACAGATCAGGGAACGTGGCGTCG
Result: yes (1)

Problem: Does the sequence CGTTCAAGGTCAGCAGGTCAGTGAAAGCGACGTG have recorded PBM binding z-score that is 2 or more?
Result: yes (1)

Problem: # bool: PBM binding z-score of ATATGTAGGTTATCGGGTCATCCAGTTTGCGCAT >= 2
Result: yes (1)

Problem: Is it the case that TCTGCTAGGTCAGTCGGTCAGCTAACGAGCTGCC has PBM binding z-score reaching or exceeding 2?
Result: yes (1)

Problem: Hi team, for ATATGTAGGTTATCGGGTAATTCAGTTTGCGCAT , is the recorded PBM binding z-score at or above 2?
Result: yes (1)

Problem: Quick check: does TCGAGTAGGTTAGTCGAGGCATTCAGCCAACATA have PBM binding z-score greater than or equal to 2?
Result: no (0)

Problem: Answer whether PBM binding z-score of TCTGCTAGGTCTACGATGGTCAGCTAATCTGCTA is greater than or equal to 2.
Result: no (0)

Problem: Quick check, PBM binding z-score >= 2? ACAGACAGGCGATGAAGGTAACTCAGGCTATCAT
Result: no (0)

Problem: Hi team, for CCTTACGGGTCAAGGTTATGGCACGGGTGGTACG , is the recorded PBM binding z-score at or above 2?
Result: yes (1)
